Source listed as patent US20240309070A1.

Overview of recorded Kd for various binders
- tested system: T1, VV B5 monomer protein (Wyeth Vaccinia strain B5 with C-terminal AVI tag and HIS6 tag) (Vaccinia virus, Wyeth strain, UniProt O57254 18-279)
- T1 construct: also called B5 protein; VV B5 protein
- test protocol: BLI (Octet), antibody on AHC sensor, B5 monomer analyte
readout name: Kd (nM)

binder	readout name	unit annotation	recorded result
A048-H1L3 (antibody, V domains shown) VH: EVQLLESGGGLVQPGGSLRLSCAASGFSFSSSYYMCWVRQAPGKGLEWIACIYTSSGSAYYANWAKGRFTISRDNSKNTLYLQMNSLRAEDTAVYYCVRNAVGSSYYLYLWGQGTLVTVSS VL: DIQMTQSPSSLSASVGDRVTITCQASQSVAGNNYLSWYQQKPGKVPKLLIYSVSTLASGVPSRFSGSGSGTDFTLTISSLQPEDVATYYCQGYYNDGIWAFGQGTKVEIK	Kd	nM	8.76
A048-H4L3 (antibody, V domains shown) VH: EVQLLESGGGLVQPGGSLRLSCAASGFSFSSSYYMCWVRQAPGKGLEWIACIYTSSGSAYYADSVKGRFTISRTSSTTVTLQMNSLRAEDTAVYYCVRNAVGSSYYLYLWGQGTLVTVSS VL: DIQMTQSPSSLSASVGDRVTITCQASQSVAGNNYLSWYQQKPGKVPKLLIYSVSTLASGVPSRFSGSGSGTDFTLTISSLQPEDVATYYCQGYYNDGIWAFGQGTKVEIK	Kd	nM	6.31
A048-H4L4 (antibody, V domains shown) VH: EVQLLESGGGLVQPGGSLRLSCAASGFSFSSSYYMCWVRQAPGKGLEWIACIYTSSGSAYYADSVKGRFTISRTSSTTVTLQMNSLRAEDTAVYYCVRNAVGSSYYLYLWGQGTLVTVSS VL: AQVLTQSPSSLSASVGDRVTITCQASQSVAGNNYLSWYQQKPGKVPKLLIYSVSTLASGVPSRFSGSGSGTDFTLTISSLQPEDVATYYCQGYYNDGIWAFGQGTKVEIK	Kd	nM	9.6
A048-H3L1 (antibody, V domains shown) VH: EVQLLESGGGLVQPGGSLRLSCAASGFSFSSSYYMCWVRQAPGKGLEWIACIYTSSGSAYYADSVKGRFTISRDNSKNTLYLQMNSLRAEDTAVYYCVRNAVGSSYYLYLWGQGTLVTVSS VL: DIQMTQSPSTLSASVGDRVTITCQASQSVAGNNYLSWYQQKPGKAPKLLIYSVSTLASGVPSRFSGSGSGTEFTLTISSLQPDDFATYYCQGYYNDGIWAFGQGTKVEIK	Kd	nM	4.37
A048-H3L3 (antibody, V domains shown) VH: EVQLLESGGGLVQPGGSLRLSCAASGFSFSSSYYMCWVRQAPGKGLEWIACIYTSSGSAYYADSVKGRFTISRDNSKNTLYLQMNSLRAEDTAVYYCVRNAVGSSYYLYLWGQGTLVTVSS VL: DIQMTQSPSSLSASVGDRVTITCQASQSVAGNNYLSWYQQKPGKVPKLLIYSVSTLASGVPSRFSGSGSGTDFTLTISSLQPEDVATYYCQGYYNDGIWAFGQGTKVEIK	Kd	nM	7.71
A048-H2L1 (antibody, V domains shown) VH: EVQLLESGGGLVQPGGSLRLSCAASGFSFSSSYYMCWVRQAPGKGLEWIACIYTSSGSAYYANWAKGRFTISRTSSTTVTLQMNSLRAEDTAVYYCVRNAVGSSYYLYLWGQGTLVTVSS VL: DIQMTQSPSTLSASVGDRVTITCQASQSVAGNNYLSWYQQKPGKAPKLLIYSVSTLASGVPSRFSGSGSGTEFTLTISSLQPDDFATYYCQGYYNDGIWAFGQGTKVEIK	Kd	nM	7.21
